Assignment: determine reported TD50 for the given compounds.
# System: rodent lifetime carcinogenesis bioassay, tumor incidence TD50
# PROTOCOL SUMMARY: carcinogenic potency in animals, long-term in vivo studies, CPDB compilation (AID 1745844)
# RUN CONDITIONS: rat; strain Fischer 344; males; in feed; site: liver; lesion: hepatocellular adenoma + hepatoblastoma + hepatocellular carcinoma; dosed 103 weeks; study length 104 weeks
Respond with a number, then the unit of measure.

[
  {
    "COMPOUND STRING": "Nc1c(Br)cc(Br)c2c1C(=O)c1ccccc1C2=O",
    "READING": "53.8 mg/kg/day"
  }
]

// input: 2 compounds below; output: TD50 for each
1. Nc1cc(S(=O)(=O)[O-])cc2cc(S(=O)(=O)[O-])c(N=Nc3ccc(-c4ccc(N=Nc5c(S(=O)(=O)[O-])cc6cc(S(=O)(=O)[O-])cc(N)c6c5O)c(O)c4)cc3O)c(O)c12.[Cu].[Cu].[Na+].[Na+].[Na+].[Na+]
2. COc1ccccc1[N+](=O)[O-]

Response:
5050 mg/kg/day
330 mg/kg/day

Values were extracted from PubChem BioAssay AID1745844.
